testTarget: HDAC1 (Homo sapiens (Human))
methodDescription: Reporter displacement assay (HDAC1)
Format: binding
experimentalEndpoint: residence time (min)
State just the number; it will be interpreted in min.

Some compounds with recorded residence time:
{"compound": "Nc1ccc(-c2ccncc2)cc1NC(=O)N1CC2CN(C3COC3)CC2C1 (stereo not shown)", "residence time, min": 724}
{"compound": "Nc1ccc(-c2ccoc2)cc1NC(=O)N1Cc2ccncc2C1", "residence time, min": 1130}

Request: Bench note: what residence time did Cc1cc(F)ccc1-c1ccc(N)c(NC(=O)N2Cc3ccncc3C2)c1 show?
Result: 1350

Request: Do the same for NCC(=O)N1CC2CN(C(=O)Nc3cc(-c4ccc(F)cc4)ccc3N)CC2C1 (stereo not shown) please
Result: 587

====

testTarget: HDAC2 (Homo sapiens (Human))
Sequence (Q92769 whole entry): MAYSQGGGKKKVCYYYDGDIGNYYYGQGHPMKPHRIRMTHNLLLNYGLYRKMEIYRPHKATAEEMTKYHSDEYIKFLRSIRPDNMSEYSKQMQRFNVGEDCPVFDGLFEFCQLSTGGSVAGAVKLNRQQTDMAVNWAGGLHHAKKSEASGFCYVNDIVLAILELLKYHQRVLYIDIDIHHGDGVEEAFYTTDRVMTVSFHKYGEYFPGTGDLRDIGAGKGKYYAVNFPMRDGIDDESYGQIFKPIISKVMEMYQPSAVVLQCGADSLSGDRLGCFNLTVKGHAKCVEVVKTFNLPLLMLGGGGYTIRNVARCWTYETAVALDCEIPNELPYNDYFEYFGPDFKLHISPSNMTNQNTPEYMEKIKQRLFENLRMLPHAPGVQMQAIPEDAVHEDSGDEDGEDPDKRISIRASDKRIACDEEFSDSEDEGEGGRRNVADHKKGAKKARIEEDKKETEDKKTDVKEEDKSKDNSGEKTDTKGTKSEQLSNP
methodDescription: Reporter displacement assay (HDAC2)
Assay type: binding
experimentalEndpoint: log10 of residence time (log10 of the value in min)
log10 residence time, min

{"compound": "CC(=O)N1C2CCC1CN(C(=O)Nc1cc(-c3ccc(F)cc3)ccc1N)C2", "log10 of residence time": 1.48}

Request: Bench note: what log10 of residence time did Nc1ccc(-c2ccc(F)c(F)c2)cc1NC(=O)N1Cc2ccncc2C1 show?
Result: 3.08

Request: Do the same for Nc1ccc(-c2ccc(F)cc2)cc1NC(=O)c1cn2c(n1)CNCC2 please
Result: 3.29

Request: Do the same for Nc1ccc(-c2ccc(F)cc2)cc1NC(=O)N1CCC2(CCNC2)CC1 please
Result: 2.80

Request: Do the same for Nc1ccc(-c2ccncc2)cc1NC(=O)N1Cc2nccnc2C1 please
Result: 3.29

Request: Do the same for Nc1ccc(-c2ccc(F)cc2)cc1NC(=O)N1CC2(CCOCC2)C1 please
Result: 2.91

Request: Do the same for CC(C)CC(=O)N1CC2CN(C(=O)Nc3cc(-c4ccc(F)cc4)ccc3N)CC2C1 (stereo not shown) please
Result: 3.24

Request: Do the same for Nc1ccc(-c2ccc(OC(F)F)cc2)cc1NC(=O)N1Cc2ccncc2C1 please
Result: 3.13

Request: Do the same for Nc1ccc(-c2ccc(F)cc2)cc1NC(=O)c1nc2c(s1)CNCC2 please
Result: 3.21

Request: Do the same for Nc1ccc(-c2ccc(F)cc2)cc1NC(=O)N1CC2CCC(C1)O2 please
Result: 1.79

Request: Do the same for Nc1ccc(-c2ccncc2)cc1NC(=O)c1cn2c(n1)CNCC2 please
Result: 3.21

Request: Do the same for Nc1ccc(-c2ccc(F)c(F)c2)cc1NC(=O)N1Cc2nccnc2C1 please
Result: 3.14

Request: Do the same for Nc1ccc(-c2ccc(F)cc2)cc1NC(=O)c1cn2c(n1)CCCC2 please
Result: 3.00

====

testTarget: HDAC1 (Homo sapiens (Human), UniProt Q13547)
Sequence (Q13547 whole entry): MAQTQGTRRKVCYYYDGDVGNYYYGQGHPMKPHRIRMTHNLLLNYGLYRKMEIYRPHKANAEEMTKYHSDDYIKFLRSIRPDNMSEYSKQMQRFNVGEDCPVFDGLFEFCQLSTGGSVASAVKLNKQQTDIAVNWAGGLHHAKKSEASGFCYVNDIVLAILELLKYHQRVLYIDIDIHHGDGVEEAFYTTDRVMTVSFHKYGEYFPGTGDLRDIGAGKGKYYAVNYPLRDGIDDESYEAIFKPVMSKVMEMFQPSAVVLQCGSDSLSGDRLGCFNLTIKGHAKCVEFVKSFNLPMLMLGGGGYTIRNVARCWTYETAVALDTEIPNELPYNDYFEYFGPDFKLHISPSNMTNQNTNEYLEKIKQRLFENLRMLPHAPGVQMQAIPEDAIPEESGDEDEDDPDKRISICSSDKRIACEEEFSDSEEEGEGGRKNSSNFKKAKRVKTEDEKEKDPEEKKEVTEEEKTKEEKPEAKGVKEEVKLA
methodDescription: Reporter displacement assay (HDAC1)
Type: binding
experimentalEndpoint: residence time (min)
State just the number; it will be interpreted in min.

{"smilesInput": "CC(=O)N1C2CCC1CN(C(=O)Nc1cc(-c3ccc(F)cc3)ccc1N)C2", "experimentalEndpoint": "residence time", "obsValue": 16}
{"smilesInput": "Nc1ccc(-c2ccc(C(F)(F)F)cn2)cc1NC(=O)N1Cc2ccncc2C1", "experimentalEndpoint": "residence time", "obsValue": 140}
{"smilesInput": "Nc1ccc(-c2ccco2)cc1NC(=O)N1Cc2ccncc2C1", "experimentalEndpoint": "residence time", "obsValue": 1380}
{"smilesInput": "CNC(=O)N1CCc2nc(C(=O)Nc3cc(-c4ccc(F)cc4)ccc3N)sc2C1", "experimentalEndpoint": "residence time", "obsValue": 1360}
{"smilesInput": "Nc1ccc(-c2ccc(F)cc2)cc1NC(=O)N1CC2CCC(C1)N2C=O", "experimentalEndpoint": "residence time", "obsValue": 29}

Request: Bench note: what residence time did Nc1ccc(-c2ccc(F)cc2)cc1NC(=O)N1CCC2(CCNC2)CC1 show?
Result: 1180

Request: Do the same for Nc1ccc(-c2ccc(F)cc2)cc1NC(=O)N1CC2CCC(C1)O2 please
Result: 34
